# Type: in vivo, CD-1 mice
# DETAILS: CD-1, mouse, plasma, ip, 40 mg/kg

{"columns": ["COMPOUND", "concentration at 10 min / ng/mL"],
 "data": [
  ["COc1ccc2[nH]c3c(-c4cccc5ccccc45)nccc3c2c1 [SP-141]", 4420]
]}

----------
# Type: in vivo, CD-1 mice
# DETAILS: CD-1, mouse, plasma, iv, 40 mg/kg
PROPERTY NAME: concentration at 24 h

{"columns": ["CHEMICAL STRING", "PROPERTY NAME", "EXPERIMENTAL VALUE"],
 "data": [
  ["COc1ccc2[nH]c3c(-c4cccc5ccccc45)nccc3c2c1", "concentration at 24 h", "< 20 ng/mL"]
]}

----------
# Type: in vivo, CD-1 mice
# DETAILS: CD-1, mouse, plasma, iv, 40 mg/kg

{"columns": ["COMPOUND", "AUC(0-inf) (ng·h/mL)"],
 "data": [
  ["COc1ccc2[nH]c3c(-c4cccc5ccccc45)nccc3c2c1 [SP-141]", 8540]
]}

----------
# Type: in vivo, CD-1 mice
# DETAILS: CD-1, mouse, plasma, iv, 40 mg/kg

{"columns": ["CHEMICAL STRING", "concentration at 5 min"],
 "data": [
  ["COc1ccc2[nH]c3c(-c4cccc5ccccc45)nccc3c2c1", "5530 ng/mL"]
]}

----------
# Assay type: in vivo, CD-1 mice
# DETAILS: CD-1, mouse, plasma, iv, 40 mg/kg
PROPERTY NAME: AUC(0-t) (ng·h/mL)

{"columns": ["CHEMICAL STRING", "EXPERIMENTAL VALUE"],
 "data": [
  ["COc1ccc2[nH]c3c(-c4cccc5ccccc45)nccc3c2c1", 8340]
]}

----------
# Type: in vivo, CD-1 mice
# DETAILS: CD-1, mouse, plasma, iv, 40 mg/kg

{"columns": ["COMPOUND", "Cmax (ng/mL)"],
 "data": [
  ["COc1ccc2[nH]c3c(-c4cccc5ccccc45)nccc3c2c1 [SP-141]", 5530]
]}
